# studySystem: PSMA Fab (anti-PSMA Fab; 006 PSMA Fab)
# assay: phage binding ELISA on captured PSMA Fab; wells first incubated with PSMA antigen as competitor; anti-M13 HRP detection
# if measured Phage binding ELISA signal, Anti-PSMA Fab with PSMA antigen < 0.07: 1.0  # else: 0.0

Look over these answered cases.
>>> label("INKWCTPAWMCDLS [Phage-2726 (Peptide-180 library clone)]")
0.0
>>> label("LYNRCTPAWMCTGF [Phage-2729 (Peptide-180 library clone)]")
1.0
>>> label("WEKWCTPPWMCHDM [Phage-2732 (Peptide-180 library clone)]")
1.0

stdin: Consider WQKWCTPMWMCEAT [Phage-2727 (Peptide-180 library clone)] . Does its Phage binding ELISA signal, Anti-PSMA Fab with PSMA antigen lie strictly below 0.07?
stdout: 0.0

stdin: Input TNNWCIPSWMCDIR [Phage-2737 (Peptide-180 library clone)] ; condition: Phage binding ELISA signal, Anti-PSMA Fab with PSMA antigen strictly below 0.07. Does it hold?
stdout: 1.0

stdin: Quick check: does HGKLCTPSWMCNGF [Phage-2735 (Peptide-180 library clone)] have Phage binding ELISA signal, Anti-PSMA Fab with PSMA antigen under 0.07?
stdout: 1.0

stdin: Phage binding ELISA signal, Anti-PSMA Fab with PSMA antigen strictly < 0.07 for this binder? MEKMCTPQWMCDMW [Phage-2725 (Peptide-180 library clone)]
stdout: 0.0

stdin: Given QMPLCIPQWMCTNN [Phage-2734 (Peptide-180 library clone)] , is recorded Phage binding ELISA signal, Anti-PSMA Fab with PSMA antigen strictly lower than 0.07?
stdout: 1.0
